Assay: in vitro
Measurement Conditions: human
Parameter: IC50

Request: What value of measured IC50 is listed for C=C1C(=O)O[C@@H]2C[C@@H](C)[C@@H]3C=CC(=O)[C@@]3(C)[C@@H](O)[C@H]12 (racemic) ?
Response: ~1000 nM

###

Assay: in vitro
Measurement Conditions: human
Parameter: IC50

Request: What value of measured IC50 is listed for C=C1C(=O)O[C@@H]2C[C@@H](C)[C@@H]3C=CC(=O)[C@@]3(C)[C@@H](O)[C@H]12 (racemic) [H. tox] ?
Response: ~1000 nM
